B1: Hairpin Ribozyme (parent)
chain: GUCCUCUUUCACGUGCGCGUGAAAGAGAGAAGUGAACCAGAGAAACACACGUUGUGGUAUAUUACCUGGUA

# Variants of: B1
# assay-summary: self-cleavage, relative activity (ratio to wild type); higher = more cleavage; co-transcriptional
The variants listed here are annotated with their self-cleavage.
test-readout: self-cleavage

> print(dat)
   mutation.spec  observed.value
1      U20A U62G           0.195
2       U2C C65A           0.195
3      A47C G68U           0.298
4      A11C A44G           0.197
5       G1A G19A           0.203
